# target_entity: Gal(b1-4)GlcNAc(b1-6)Gal(b1-4)GlcNAc
# procedure_summary: glycan array binding signal (z-score within array); higher = stronger binding
# condition_summary: glycan notation: IUPAC condensed, linker removed
Shown is part of a subset that was picked to be rich in the strongest signals.
readout_label: glycan array binding signal (z-score)
Give the value as a plain number.

{"columns": ["binder", "result_value"],
 "data": [
  ["LlpA (Burkholderia cenocepacia) (protein) MGSSHHHHHHSSGLVPRGSHKILGSNETLSAGNVVYSDNGQYHLAMQTDGNLVVYGPTGAVWQSQTSGSGGNRAVMQGDGNLVIYRADNTAAWSSKTAHPGAFLAVQDDGNVVIYWPRPAWASNTSDPATQQSAESKYLASGSTMSAGQTVTVAQYMLVFQADGNLVLYKNGGNPIWSTGTQGKGATYAVMQSDGNFVIYAGSTALWSTKTNGANGAQLVLQSDGNLVIYAPTAAWSTKFGLVTAPTSTSTSNNGPGSGICVGVCPPHPLNGNPFSPVGVGTTGLGFPTPGYPGAAF", -0.14]
]}

Okay, next one:
Request the reported glycan array binding signal (z-score) associated with Epa3to1 (Candida glabrata) (protein) MGSSHHHHHHSSGLVPRGSHMKRELSSQNPFGYPIGCSPQDVAIIPGLTMELYSYPIVSGTPPNCYDASYVDPEYPRTGYLKRKMVGKSTGVTGNLNYKYSVEKACMVKYGNLPAGYNYNEPLTVSNFTMILYGYFKAQTTGLHTFFVNADDLLYINFGAGNAFDCCKREDSKTKLGEYVAYDIWHVDSSKNKVSLFLEKDLYYPIRMFFNNREYDSSLDLSFSVNGATDQISDFSGYLYSVPDQPDTCPAHIGYDTTCR 0.054
